B1: PKD2L1 (parent)
chain: VFIFYYVVEEILELHIHRLRYLSS

variants of: B1; test: protein stability index of a GFP-peptide fusion (GPS, HEK-293T) (PSI 1-6); higher = more stable; details: c terminus: a fixed tail appended;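 further: lentivirally expressed fusions sorted by FACS into six bins by GFP to DsRed ratio, PSI derived from sequencing read proportions per bin multiplied by bin number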
Documented protein stability index across a set of variants
QUANTITY_NAME: protein stability index

• VFIFYYQVEEILELHIHRLRYLSS [V7Q] = 3.24
• VFLFYYVVEEILELHIHRLRYLSS [I3L] = 2.25
• VFIFYYVVEEILELHISRLRYLSS [H17S] = 3.69
• VFIFYYVVEEILELHIHRLRYESS [L22E] = 2.43
• VFIFYYVVEEILELHIHCLRYLSS [R18C] = 2.63
• VFIFYYVVEEELELHIHRLRYLSS [I11E] = 3.87
• VFIFYYVVEEILELHIHRLRYLRS [S23R] = 4.53
• VFIFYYVVEEILFLHIHRLRYLSS [E13F] = 3.37
• VFIFYYAVEEILELHIHRLRYLSS [V7A] = 4.67
• VQIFYYVVEEILELHIHRLRYLSS [F2Q] = 3.67
• VFIFYYVVEIILELHIHRLRYLSS [E10I] = 2.56
• VFIFNYVVEEILELHIHRLRYLSS [Y5N] = 2.63
• VFIFYYVTEEILELHIHRLRYLSS [V8T] = 1.93
• VFIFYYVVEEILELHIHRLRYLSH [S24H] = 3.15
• VFTFYYVVEEILELHIHRLRYLSS [I3T] = 1.54
• VFHFYYVVEEILELHIHRLRYLSS [I3H] = 1.62
• VFIAYYVVEEILELHIHRLRYLSS [F4A] = 4
• VFIFYYVVEEILETHIHRLRYLSS [L14T] = 4.48
• VKIFYYVVEEILELHIHRLRYLSS [F2K] = 2.56
• VFIFYYVVEEILELHIARLRYLSS [H17A] = 2.18
• VFIFYYVVEEINELHIHRLRYLSS [L12N] = 2.41
• NFIFYYVVEEILELHIHRLRYLSS [V1N] = 2.89
• VFIFYYVVEEILELHIHRLRYLSL [S24L] = 2.58
• VFIFYYVVEWILELHIHRLRYLSS [E10W] = 2.69
• VFIFYYVVEEILELHIHRLRYPSS [L22P] = 4.59
• VFISYYVVEEILELHIHRLRYLSS [F4S] = 2.7
• VFIFYYVVEEILESHIHRLRYLSS [L14S] = 2.8
• VFIFYYVVEEILELHIHRLRLLSS [Y21L] = 2.06
• CFIFYYVVEEILELHIHRLRYLSS [V1C] = 1.97
• VFIFYYVVEEILELHAHRLRYLSS [I16A] = 2.11
• VFIFYYVVEEILELTIHRLRYLSS [H15T] = 2.71
• VRIFYYVVEEILELHIHRLRYLSS [F2R] = 3.23
• VHIFYYVVEEILELHIHRLRYLSS [F2H] = 1.63
• VFIFYEVVEEILELHIHRLRYLSS [Y6E] = 1.79
• VFIFWYVVEEILELHIHRLRYLSS [Y5W] = 2.24
• VFIFYYVVEEILELHSHRLRYLSS [I16S] = 3.37
• VFIFYYVVEEILELHIHRLWYLSS [R20W] = 2.38
• VFIFYYVVEEILELHIHRLRYLFS [S23F] = 2.05
• VFIFYYVVEEILELHIHRLKYLSS [R20K] = 2.34
• VFIFTYVVEEILELHIHRLRYLSS [Y5T] = 2.27
• VFIFYYVVEEILEYHIHRLRYLSS [L14Y] = 2.14
• VFIFYYVVEEIYELHIHRLRYLSS [L12Y] = 2.89
• VFIFYYNVEEILELHIHRLRYLSS [V7N] = 2.13
• VFIHYYVVEEILELHIHRLRYLSS [F4H] = 2.09
• VFIFYYVVEEILSLHIHRLRYLSS [E13S] = 1.92
• VFDFYYVVEEILELHIHRLRYLSS [I3D] = 3.59
